# credit: paper PMC12820563

Reported binding signal values are given for each entry in this list.
Molecular target: MBP-FoxP1dN (Mus musculus, UniProt P58462 326-579)
Sequence: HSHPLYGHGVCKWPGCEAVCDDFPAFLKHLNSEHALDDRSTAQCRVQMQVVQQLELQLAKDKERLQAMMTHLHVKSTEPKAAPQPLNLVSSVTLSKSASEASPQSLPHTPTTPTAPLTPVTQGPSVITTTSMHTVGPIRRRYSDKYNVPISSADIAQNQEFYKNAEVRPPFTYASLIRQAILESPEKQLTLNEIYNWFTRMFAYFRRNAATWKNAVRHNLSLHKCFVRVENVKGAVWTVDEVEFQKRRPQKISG
Experiment: PD-seq (MBP pull-down with sequencing); 20 mM Tris-HCl pH 7.5, 100 mM NaCl, 1.5 mM MgCl2, 0.4 uM protein, 0.1 uM dsDNA library, 30 min, room temperature, amylose pull-down; high values mean tight binding
Conditions: protein: recombinant; tags: His6-MBP; chain copies: 2; dsDNA, one strand shown
The full ranking holds about 16,000 sequences; the median of “rpm ratio (pull-down/input)” is about 0.94, and the highest 2% start at about 1.7. For the sample, the highest values were picked, then their nearest neighbours and some sequences at random.

{"chain": "GATGATTGTTCTCCCAGCTGATGAATTATTCTTGTCGAGTAAACAAATTTTCCTAATCTTTCTGTTCAAGCGCCATCTAC", "readoutName": "binding signal", "recordedMeasurement": "1.16 RPM ratio (pull-down/input)"}
{"chain": "GATGATTGTTCTCCCAGCTGATGAATTTCTTTTATCGAGTAAACAAATTTTCCTAATCTTTCTGTTCAAGCGCCATCTAC", "readoutName": "binding signal", "recordedMeasurement": "1.03 RPM ratio (pull-down/input)"}
{"chain": "GATGATTGTTCTCCCAGCTGATGAATTATGATTGTCGAGTAAACAAATTTTCCTAATCTTTCTGTTCAAGCGCCATCTAC", "readoutName": "binding signal", "recordedMeasurement": "1.45 RPM ratio (pull-down/input)"}
{"chain": "GATGATTGTTCTCCCAGCTGATGAATTCGCTGTATCGAGTAAACAAATTTTCCTAATCTTTCTGTTCAAGCGCCATCTAC", "readoutName": "binding signal", "recordedMeasurement": "1.04 RPM ratio (pull-down/input)"}

# context switch: different sequence, same binding signal
Quick check: binding signal of GATGATTGTTCTCCCAGCTGATGAATTTTTTTTATCGAGTAAACAAATTTTCCTAATCTTTCTGTTCAAGCGCCATCTAC ?
0.958 RPM ratio (pull-down/input)

###

Target: MBP-FoxP1dN (Mus musculus, UniProt P58462 326-579)
Sequence: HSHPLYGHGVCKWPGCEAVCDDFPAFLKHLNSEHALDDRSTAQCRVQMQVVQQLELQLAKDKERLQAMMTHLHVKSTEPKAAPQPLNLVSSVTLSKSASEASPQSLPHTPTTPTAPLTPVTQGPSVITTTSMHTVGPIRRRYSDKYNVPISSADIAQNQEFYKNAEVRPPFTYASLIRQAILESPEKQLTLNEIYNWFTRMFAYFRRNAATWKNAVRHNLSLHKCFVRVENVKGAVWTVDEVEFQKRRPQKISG
Assay: PD-seq (MBP pull-down with sequencing); 20 mM Tris-HCl pH 7.5, 100 mM NaCl, 1.5 mM MgCl2, 0.4 uM protein, 0.1 uM dsDNA library, 30 min, room temperature, amylose pull-down; high values mean tight binding
Settings: protein: recombinant; tags: His6-MBP; chain copies: 2; dsDNA, one strand shown
Whole data set: some 16,000 sequences, median “rpm ratio (pull-down/input)” near 0.94, cut for the highest 2% near 1.7. The sample as a whole holds a higher share of the highest values than the screen did.
readoutName: binding signal

{"chain": "GATGATTGTTCTCCCAGCTGATGAATTATAAATATCGAGTAAACAAATTTTCCTAATCTTTCTGTTCAAGCGCCATCTAC", "binding signal": "2.01 RPM ratio (pull-down/input)"}

Quick check: binding signal of GATGATTGTTCTCCCAGCTGATGAATTCGCCCGATCGAGTAAACAAATTTTCCTAATCTTTCTGTTCAAGCGCCATCTAC ?
0.901 RPM ratio (pull-down/input)
